Target: T1, recombinant protein consisting of the extracellular domain of human TREM2 fused to the His tag (human, UniProt Q9NZC2 19-174)
T1 construct: also called His tagged hTREM2; His-TREM2
T1 sequence: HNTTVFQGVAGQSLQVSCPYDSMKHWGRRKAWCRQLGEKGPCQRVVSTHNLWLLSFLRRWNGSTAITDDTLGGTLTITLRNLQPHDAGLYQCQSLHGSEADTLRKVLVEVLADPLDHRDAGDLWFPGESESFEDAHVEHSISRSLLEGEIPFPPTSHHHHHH
Experiment: direct ELISA, coated His-TREM2 0.5 ug/mL, Ab stock 1 mg/mL
measured parameter: OD at dilution 729000 (OD)
Kindly provide the numeric value in OD only, without the unit symbol.

| binder | OD at dilution 729000 [OD] |
| --- | --- |
| 54H2C1 (antibody, V domains shown, Biotin conjugated in sup ELISA, cell-based ELISA and flow cytometry) VH: QVQLQQPGAEPLTPGASVKMSCEASGYTFTNFWITWVKLRPGQGLEWIGDIYPGSGNTNYNEKFKSRATLTVDTSSTTAYMQLSSLTSEDSAVYYCAREAYYTNPGFAYWGHGTLVTVSA VL: DVLMTQSPLSLPVNLGDQASISCKSSQNIVHSNGNTYLEWYLQRPGQSPKLLIYKVSNRFSGVPDRFSGSGSGTDFTLKISRVEAEDLGLYYCFQGSHVPYTFGGGTKLEIK | 0.147 |

Just so you know, measured OD at dilution 729000 for 80E3C7 (antibody, V domains shown, Biotin conjugated in sup ELISA, cell-based ELISA and flow cytometry; also called anti-TREM2 antibody (E3C7); TREM2 Ab E3C7) VH: QVQLQQPGAEPLKPGASVKMSCEASGYTFTNFWITWMKLRPGQGLEWIGDIYPGTGNTNYNEKFKSRATLTVDTSSTTAYMQLSSLTSEDSAVYYCAREAYYTNPGFAYWGHGTLVTVSA VL: DVLMTQSPLSLPVNLGDQASISCKSSQNIVHSNGNTYLEWYLQRPGQSPKLLIYKVSNRFSGVPDRFSGSGSGTDFTLKISRVEAEDLGVYYCFQGSHVPYTFGGGTKLEIK came out at 0.281
